Give measured Kd for each item. Keep answers brief.
Target: T1, human soluble ULBP6 haplotype 01 (hULBP6_01) (human, UniProt Q5VY80 27-218, limits assumed)
T1 construct: also called sULBP6_01
T1 chain: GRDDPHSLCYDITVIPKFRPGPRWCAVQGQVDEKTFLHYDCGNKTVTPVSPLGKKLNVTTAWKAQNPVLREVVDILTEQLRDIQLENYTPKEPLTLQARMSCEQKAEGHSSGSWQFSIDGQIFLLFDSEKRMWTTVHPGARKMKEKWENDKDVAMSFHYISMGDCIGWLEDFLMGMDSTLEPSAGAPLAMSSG
Experiment: SPR (BIACORE 8K, 37 C); antibody captured on Protein A, soluble ULBP injected;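 note: ligand injected as threefold dilution series in HBS-P (highest 10 or 50 nM), reference-cell and buffer-subtracted sensorgrams fitted with a 1:1 Langmuir model for on and off rates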

Report Kd for humanized 1D4 (h1D4), Fc version not stated (antibody, V domains shown, Recombinant humanized antibody, hIgG1 backbone with kappa light chain; also called hiD4; hu1D4) VH: EIQLVQSGSELKKPGASVKVSCKASGYTFTEYPIHWVRQAPGQGFEWMGMIYTDTGEPTHAEEFKGRFVFSLDTSVSTAYLQISSLKAEDTAVYFCVRWYDGSSYIMDYWGQGTTVTVSS VL: DIQMTQSPSSLSASVGDRVTITCKASQDINSYLSWFQQKPGKSPKTLIYRANRLVDGVPSRFSGSGSGQDYTFTISSLQPEDIATYYCLQYDEFPLTFGGGTKVEIK please.
0.422 nM

Continue with humanized 7B3 (h7B3), Fc version not stated (antibody, V domains shown, Recombinant humanized antibody, hIgG1 backbone with kappa light chain; also called hu7B3; PUR3922) VH: EVQLVESGGGLVQPGGSLRLSCAASGFTFSTYGFHWVRQAPGKGLEWVAYISSNSGTIDYADTVKGRFTISRDNAKNSLYLQMNSLRAEDTAVYYCARQGYGFDNWGQGTTVTVSS VL: DIQLTQSPSSLSASVGDRVTITCSASSRVSYMNWYQQKPGKSPKIWVYGISNLASGVPSRFSGSGSGTDFTFTISSLQPEDIATYYCQQRSSHPLTFGGGTKVEIK
0.263 nM

Continue with humanized 6E1 (h6E1), Fc version not stated (antibody, V domains shown, Recombinant humanized antibody, hIgG1 backbone with kappa light chain; also called hu6E1; PUR3993) VH: EVQLVQSGAEVKKPGASVKVSCKASGYTFTNYWMHWMRQAPGQGLEWLGRIHPSDSDTNYNQKFKGRATLTVDKSISTAYMELSRLRSDDTAVYYCAIEGTGKGYFDVWGRGTLVTVSS VL: DIQMTQSPSSLSASVGDRVTITCKASQDIYSYLSWFQQKPGKSPKTLIYRANRLVDGVPSRFSGSGSGQDFTLTISSLQPEDFATYYCLHYDEFPLTFGGGTKVEIK
5.24 nM

Continue with humanized 8E11 (h8E11), Fc version not stated (antibody, V domains shown, Recombinant humanized antibody, hIgG1 backbone with kappa light chain; also called PUR3926) VH: EVQLVESGGGLVQPGGSLRLSCAASGFTFRTYGMHWVRQAPGKGLEWVAYISSGSGTIDYADTVKGRFTISRDNAKNSLYLQMNSLRAEDTAVYYCTRQTGAMDYWGQGTLVTVSS VL: EIVLTQSPATLSLSPGERATLSCSASSSVSYMNWYQQKPGQSPRLWIYGISNLASGVPARFSGSGSGTDFTLTISSLEPEDFAVYYCQQRSSHPLTFGGGTKVEIK
0.331 nM

Hey, just so you know, these numbers are from patent US20250084172A1.
